Molecular target: IRAK-4 (Homo sapiens)
Sequence (Q9NWZ3 whole entry): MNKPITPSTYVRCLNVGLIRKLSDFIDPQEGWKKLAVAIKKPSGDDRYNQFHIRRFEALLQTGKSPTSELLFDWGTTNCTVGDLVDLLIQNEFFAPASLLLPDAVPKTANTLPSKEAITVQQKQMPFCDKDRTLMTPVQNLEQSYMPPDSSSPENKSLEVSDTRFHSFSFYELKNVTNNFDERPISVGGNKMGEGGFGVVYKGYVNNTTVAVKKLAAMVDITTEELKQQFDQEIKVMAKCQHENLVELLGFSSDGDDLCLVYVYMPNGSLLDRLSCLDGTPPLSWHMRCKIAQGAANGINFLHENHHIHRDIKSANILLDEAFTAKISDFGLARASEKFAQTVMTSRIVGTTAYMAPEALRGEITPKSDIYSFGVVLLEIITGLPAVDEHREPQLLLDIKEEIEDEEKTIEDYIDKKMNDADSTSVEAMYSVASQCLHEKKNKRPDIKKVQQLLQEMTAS
Experiment: IRAK-4 ELISA, PBMC degradation
Type: cell-based
Parameters: endogenous in cells; host or cells: PBMC
Conditions: treated overnight
experimentalEndpoint: DC50

Solved entries:
Name the reported DC50 value associated with the molecule CC(C)Oc1cc2nn(C3CN(CC4(F)CCN(c5ccc6c(c5)C(=O)N(C5CCC(=O)NC5=O)C6=O)CC4)C3)cc2cc1NC(=O)c1cnn2cccnc12 (stereo not drawn) [Example 194] 1 to 5 nM

Name the reported DC50 value associated with the molecule CCN(C1CN(c2ccc(C(=O)NC3CCC(=O)NC3=O)c(F)c2)C1)[C@H]1CC[C@H](n2cc3cc(NC(=O)c4cnn5cccnc45)c(OC(C)C)cc3n2)CC1 (stereo partly drawn) [Example 322] 1 to 5 nM

Below: the item to evaluate.
Name the reported DC50 value associated with the molecule CN1CC(Oc2cc3nn(C4CCN(CC5CCN(c6ccc7c(c6)C(=O)N(C6CCC(=O)NC6=O)C7=O)CC5)CC4)cc3cc2NC(=O)c2cnn3cccnc23)C1 (stereo not drawn) [Example 152] ≥ 10 nM

====

Biological target: UniProtKB Q9NWZ3
Assay: IRAK-4 ELISA, PBMC degradation
Assay type: cell-based
Set-up: endogenous in cells; host or cells: PBMC
Settings: treated overnight
Below, each of the compounds is paired with its reported Dmax value.

Solved entries:
Name the reported Dmax value associated with the compound O=C1CCC(N2Cc3cc(OCCN4CCC(n5cc6cc(NC(=O)c7cnn8cccnc78)c(OCC7CC7)cc6n5)CC4)ccc3C2=O)C(=O)N1 (centres unmarked) < 70%

Name the reported Dmax value associated with the compound CN(C1CCC(N2Cc3cc(NC(=O)c4cnn5cccnc45)c(OCC4CC4)cc3C2=O)CC1)C1CN(c2ccc3c(c2)C(=O)N(C2CCC(=O)NC2=O)C3=O)C1 (centres unmarked) ≥ 90%

Name the reported Dmax value associated with the compound CC(C)Oc1cc2c(cc1NC(=O)c1cnn3cccnc13)CN([C@H]1CC[C@@H](N3CC4(CN(c5ccc6c(c5)CN(C5CCC(=O)NC5=O)C6=O)C4)C3)CC1)C2=O (some centres unmarked) ≥ 90%

Name the reported Dmax value associated with the compound C=C(CN1CCC(N2Cc3cc(NC(=O)c4cnn5cccnc45)c(OC(C)C)cc3C2=O)CC1)C1CCN(c2ccc3c(c2)C(=O)N(C2CCC(=O)NC2=O)C3=O)CC1 (centres unmarked) ≥ 90%

Name the reported Dmax value associated with the compound O=C1CCC(N2Cc3cc(N4CC(F)(CN5CCC(n6cc7cc(NC(=O)c8cnn9cccnc89)c(OCC8CC8)cc7n6)CC5)C4)ccc3C2=O)C(=O)N1 (centres unmarked) ≥ 90%

Name the reported Dmax value associated with the compound CC(C)(C1CCN(c2ccc3c(c2)C(=O)N(C2CCC(=O)NC2=O)C3=O)CC1)N1CCC(N2Cc3cc(NC(=O)c4cnn5cccnc45)c(OCC4CC4)cc3C2=O)CC1 (centres unmarked) 80 to 90%

Name the reported Dmax value associated with the compound CN(C1CN(c2ccc(C(=O)NC3CCC(=O)NC3=O)c(F)c2)C1)[C@H]1CC[C@H](n2cc3cc(NC(=O)c4cnn5cccnc45)c(OCC4CC4)cc3n2)CC1 (some centres unmarked) ≥ 90%

Name the reported Dmax value associated with the compound CC(C)Oc1cc2nn(C3CCN(CC4(F)CN(c5ccc6c(c5)C(=O)N(C5CCC(=O)NC5=O)C6=O)C4)CC3)cc2cc1NC(=O)c1cnn2ccc(N3C[C@H]4C[C@@H]3CO4)nc12 (some centres unmarked) 80 to 90%

Name the reported Dmax value associated with the compound O=C1CCC(N2Cc3cc(N4CCC(CN5CCC(n6cc7cc(NC(=O)c8cnn9cccnc89)c(N8CCN(CC(F)F)CC8)cc7n6)CC5)CC4)ccc3C2=O)C(=O)N1 (centres unmarked) ≥ 90%

Name the reported Dmax value associated with the compound O=C1CCC(N2Cc3c(ccc(N4CCC(CN5CCC(n6cc7cc(NC(=O)c8cnn9cccnc89)c(OCC(F)F)cc7n6)CC5)CC4)c3F)C2=O)C(=O)N1 (centres unmarked) 80 to 90%

Below: the item to evaluate.
Name the reported Dmax value associated with the compound CN(CC1(F)CN(c2ccc3c(c2)C(=O)N(C2CCC(=O)NC2=O)C3=O)C1)[C@H]1CC[C@H](n2cc3cc(NC(=O)c4cnn5cccnc45)c(OCC4CC4)cc3n2)CC1 (some centres unmarked) 70 to 80%

// provenance: patent US20230099344A1
